Entry source: ChEMBL document CHEMBL1141501

system_tested: Phosphodiesterase 4 (Homo sapiens, UniProt P27815+Q08499+Q07343+Q08493)
test_summary: Inhibition of human PDE4A1A by IMAP technology
Assign labels as follows, please: T for IC50 below 10 µM; F for IC50 equal to or exceeding 10 µM.

[
  {
    "record_smiles": "COc1ccc(OC)c(C2=Nn3c(nnc3-c3ccccc3C)SC2)c1",
    "category": "T"
  },
  {
    "record_smiles": "COc1cccc(-c2nnc3n2N=C(c2ccc(OC)cc2OC)CS3)c1",
    "category": "F"
  },
  {
    "record_smiles": "COc1cc(OC)cc(-c2nnc3n2N=C(c2ccc(OC)cc2OC)CS3)c1",
    "category": "F"
  },
  {
    "record_smiles": "COc1ccc(C2=Nn3c(nnc3-c3ccccc3OC)SC2)c(OC)c1",
    "category": "F"
  },
  {
    "record_smiles": "COc1cccc(-c2nnc3n2N=C(c2c(OC)cccc2OC)CS3)c1",
    "category": "F"
  },
  {
    "record_smiles": "COc1cccc(C2=Nn3c(nnc3-c3cccc(OC)c3)SC2)c1",
    "category": "F"
  },
  {
    "record_smiles": "COc1ccc(-c2nnc3n2N=C(c2c(OC)cccc2OC)CS3)cc1",
    "category": "F"
  },
  {
    "record_smiles": "COc1ccc(-c2nnc3n2N=C(c2cccc(OC)c2)CS3)cc1",
    "category": "T"
  },
  {
    "record_smiles": "COc1ccc(C2=Nn3c(nnc3-c3ccc(OC)c(OC)c3)SC2)c(OC)c1",
    "category": "T"
  },
  {
    "record_smiles": "COc1ccc(C2=Nn3c(nnc3-c3ccccc3O)SC2)cc1",
    "category": "T"
  },
  {
    "record_smiles": "COc1ccccc1C1=Nn2c(nnc2-c2cccc(OC)c2OC)SC1",
    "category": "F"
  }
]

* * *

system_tested: Phosphodiesterase 4 (Homo sapiens, UniProt P27815+Q08499+Q07343+Q08493)
test_summary: Inhibition of human PDE4A1A by IMAP technology
pIC50: −log10 of the molar value.

[
  {
    "record_smiles": "COc1ccc(OC)c(-c2nnc3n2N=C(c2c(OC)cccc2OC)CS3)c1",
    "system_tested": "Phosphodiesterase 4 (Homo sapiens, UniProt P27815+Q08499+Q07343+Q08493)",
    "pIC50": "< 4.70"
  },
  {
    "record_smiles": "COc1cccc(-c2nnc3n2N=C(c2c(OC)cccc2OC)CS3)c1OC",
    "system_tested": "Phosphodiesterase 4 (Homo sapiens, UniProt P27815+Q08499+Q07343+Q08493)",
    "pIC50": "< 4.70"
  },
  {
    "record_smiles": "COc1ccc(C2=Nn3c(nnc3-c3ccccc3O)SC2)c(OC)c1",
    "system_tested": "Phosphodiesterase 4 (Homo sapiens, UniProt P27815+Q08499+Q07343+Q08493)",
    "pIC50": "< 4.70"
  },
  {
    "record_smiles": "COc1cccc(C2=Nn3c(nnc3-c3cc(OC)cc(OC)c3)SC2)c1",
    "system_tested": "Phosphodiesterase 4 (Homo sapiens, UniProt P27815+Q08499+Q07343+Q08493)",
    "pIC50": 4.87
  },
  {
    "record_smiles": "COc1cccc(C2=Nn3c(nnc3-c3ccc(OC)cc3OC)SC2)c1",
    "system_tested": "Phosphodiesterase 4 (Homo sapiens, UniProt P27815+Q08499+Q07343+Q08493)",
    "pIC50": 4.87
  },
  {
    "record_smiles": "CCOc1ccccc1-c1nnc2n1N=C(c1c(OC)cccc1OC)CS2",
    "system_tested": "Phosphodiesterase 4 (Homo sapiens, UniProt P27815+Q08499+Q07343+Q08493)",
    "pIC50": "< 4.70"
  },
  {
    "record_smiles": "COc1ccccc1-c1nnc2n1N=C(c1c(OC)cccc1OC)CS2",
    "system_tested": "Phosphodiesterase 4 (Homo sapiens, UniProt P27815+Q08499+Q07343+Q08493)",
    "pIC50": "< 4.70"
  }
]
